tested on: p-IKKa levels in L363 (NIK translocated multiple myeloma) cells; test: Effect of compounds on p-IKKa levels in L363 (NIK translocated multiple myeloma) cells (AlphaLISA SureFire Ultra p-IKKa Ser176/180); assay type: cell-based, human; conditions: Homo sapiens, L-363, p-IKKa levels in L363 cells; average if tested more than once; read-out: Assay 2 IC50
A collection of molecules and their measured IC50
endpoint: IC50

| molecule | endpoint | value observed |
| --- | --- | --- |
| CN1CC[C@@](O)(c2cccc(-c3nc(-c4ccnc(NC5CC5)n4)cs3)c2)C1=O [Example 137] | IC50 | > 501 nM |
| CN1C(=O)[C@@](O)(c2ccnc(-c3csc(-c4ccnc(Nc5ccn(C)n5)n4)n3)c2)C[C@@H]1C(F)(F)F (single isomer, unassigned) [Example 60] | IC50 | > 501 nM |
| CN1CCC(Nc2nccc(-c3csc(-c4cccc([C@]5(O)CCN(C)C5=O)c4)n3)n2)C1=O (stereo partly drawn) [Example 201] | IC50 | > 501 nM |

---

A collection of compounds and their measured IC50
tested on: p-IKKa levels in L363 (NIK translocated multiple myeloma) cells; assay: Effect of compounds on p-IKKa levels in L363 (NIK translocated multiple myeloma) cells (AlphaLISA SureFire Ultra p-IKKa Ser176/180); format: cell-based, human; details: Homo sapiens, L-363, p-IKKa levels in L363 cells; average if tested more than once; read-out: Assay 2 IC50

| compound | IC50 |
| --- | --- |
| CN1CC[C@@](O)(c2cccc(-c3nc(-c4ccnc(NCCC(C)(C)O)n4)cs3)c2)C1=O [Example 239] | > 501 nM |
| CN1CC[C@@](O)(c2cccc(-c3nc(-c4ccnc(NC5CCN(C6COC6)CC5)n4)cs3)c2)C1=O [Example 228] | > 501 nM |
| CN1CC[C@@](O)(c2cccc(-c3nc(-c4ccnc(NCc5cn(C)cn5)n4)cs3)c2)C1=O [Example 196] | > 501 nM |
| CN1CC[C@@](O)(c2cccc(-c3nc(-c4ccnc(Nc5ccn(C)n5)n4)co3)c2)C1=O [Example 1] | 100 to 500 nM |
| Cc1ncccc1CNc1nccc(-c2csc(-c3cccc([C@]4(O)CCN(C)C4=O)c3)n2)n1 [Example 219] | > 501 nM |
| CN1CC[C@@](O)(c2cccc(-c3nc(-c4ccnc(Nc5cccc(OC(F)F)n5)n4)cs3)c2)C1=O [Example 168] | > 501 nM |
| CN1CC[C@](O)(c2cc(-c3csc(-c4ccnc(Nc5ccn(C)n5)n4)n3)ccc2F)C1=O (single isomer, unassigned) [Example 25] | > 501 nM |
| C[C@H](Nc1nccc(-c2nc(-c3cc([C@]4(O)CCN(C)C4=O)ccn3)cs2)n1)c1ccn(C)n1 (single isomer, unassigned) [Example 156] | 100 to 500 nM |
| CN1CC[C@@](O)(c2cncc(-c3ccn(-c4ccnc(Nc5cn(CC(F)F)nc5OC5CC5)n4)n3)c2)C1=O (single isomer, unassigned) [Example 145] | < 100 nM |

---

tested on: p-IKKa levels in L363 (NIK translocated multiple myeloma) cells; assay: Effect of compounds on p-IKKa levels in L363 (NIK translocated multiple myeloma) cells (AlphaLISA SureFire Ultra p-IKKa Ser176/180); type: cell-based, human; conditions: Homo sapiens, L-363, p-IKKa levels in L363 cells; average if tested more than once; read-out: Assay 2 IC50
endpoint: IC50

| compound | target | endpoint | value observed |
| --- | --- | --- | --- |
| CN1CC[C@@](O)(c2ccnc(-c3csc(-c4ccnc(Nc5cnn(C)c5)n4)n3)c2)C1=O (single isomer, unassigned) [Example 151] | p-IKKa levels in L363 (NIK translocated multiple myeloma) cells | IC50 | < 100 nM |
| CN1CC[C@@](O)(c2cccc(-c3nc(-c4ccnc(NC5[C@@H]6COC[C@@H]56)n4)cs3)c2)C1=O (stereo partly shown) [Example 115] | p-IKKa levels in L363 (NIK translocated multiple myeloma) cells | IC50 | > 501 nM |
| CN1CCO[C@@H](CNc2nccc(-c3csc(-c4cccc([C@]5(O)CCN(C)C5=O)c4)n3)n2)C1 [Example 213] | p-IKKa levels in L363 (NIK translocated multiple myeloma) cells | IC50 | > 501 nM |
| Cc1cnc(Nc2ccn(C)n2)nc1-c1csc(-c2cccc([C@]3(O)CCN(C)C3=O)c2)n1 [Example 16] | p-IKKa levels in L363 (NIK translocated multiple myeloma) cells | IC50 | > 501 nM |
| CN1CCC[C@H](Nc2nccc(-c3csc(-c4cccc([C@]5(O)CCN(C)C5=O)c4)n3)n2)C1=O [Example 223] | p-IKKa levels in L363 (NIK translocated multiple myeloma) cells | IC50 | > 501 nM |
| Cc1nc(Nc2nccc(-c3csc(-c4cccc([C@]5(O)CCN(C)C5=O)c4)n3)n2)sc1C [Example 233] | p-IKKa levels in L363 (NIK translocated multiple myeloma) cells | IC50 | 100 to 500 nM |
| CN1CC[C@@](O)(c2cccc(-c3nc(-c4ccnc(NC5COC5)n4)cs3)c2)C1=O [Example 230] | p-IKKa levels in L363 (NIK translocated multiple myeloma) cells | IC50 | 100 to 500 nM |
| CC(Nc1nccc(-c2csc(-c3cccc([C@]4(O)CCN(C)C4=O)c3)n2)n1)c1ccn(C)n1 (stereo partly shown) [Example 112] | p-IKKa levels in L363 (NIK translocated multiple myeloma) cells | IC50 | > 501 nM |
| CN1CC[C@@](O)(c2cccc(-c3cccc(-c4ccnc(NCCCO)n4)n3)c2)C1=O [Example 23] | p-IKKa levels in L363 (NIK translocated multiple myeloma) cells | IC50 | > 501 nM |
| Cc1cccnc1CNc1nccc(-c2csc(-c3cccc([C@]4(O)CCN(C)C4=O)c3)n2)n1 [Example 206] | p-IKKa levels in L363 (NIK translocated multiple myeloma) cells | IC50 | > 501 nM |
| CN1CC[C@@](O)(c2cccc(-c3csc(-c4ccnc(Nc5ccn(CC6CC6)n5)n4)n3)c2)C1=O [Example 289] | p-IKKa levels in L363 (NIK translocated multiple myeloma) cells | IC50 | > 501 nM |
| CN1CC[C@@](O)(c2cccc(-c3csc(-c4ccnc(Nc5cnn6ccccc56)n4)n3)c2)C1=O [Example 82] | p-IKKa levels in L363 (NIK translocated multiple myeloma) cells | IC50 | < 100 nM |
| CN1CC[C@@](O)(c2cccc(-c3nc(-c4ccnc(NCCNS(C)(=O)=O)n4)cs3)c2)C1=O [Example 237] | p-IKKa levels in L363 (NIK translocated multiple myeloma) cells | IC50 | > 501 nM |
| CN1CC[C@@](O)(c2cncc(-c3ccn(-c4ccnc(Nc5cnn6ccccc56)n4)n3)c2)C1=O (single isomer, unassigned) [Example 146] | p-IKKa levels in L363 (NIK translocated multiple myeloma) cells | IC50 | < 100 nM |
| CN1CC[C@@](O)(c2cccc(-c3nc(-c4ccnc(NC5CCC5)n4)cs3)c2)C1=O [Example 131] | p-IKKa levels in L363 (NIK translocated multiple myeloma) cells | IC50 | > 501 nM |
| CN1CC[C@@](O)(c2cccc(-c3nc(-c4ccnc(Nc5cn(C)nc5OC5CCC5)n4)cs3)c2)C1=O [Example 97] | p-IKKa levels in L363 (NIK translocated multiple myeloma) cells | IC50 | < 100 nM |
| CN1CC[C@@](O)(c2cccc(-c3nc(-c4ccnc(Nc5cccnc5)n4)cs3)c2)C1=O [Example 68] | p-IKKa levels in L363 (NIK translocated multiple myeloma) cells | IC50 | > 501 nM |
| C[C@H](Nc1nccc(-c2nc(-c3cc([C@]4(O)CCN(C)C4=O)ccn3)cs2)n1)c1ccnn1C [Example 290] | p-IKKa levels in L363 (NIK translocated multiple myeloma) cells | IC50 | 100 to 500 nM |
| CN1CC[C@@](O)(c2cccc(-c3nc(-c4ccnc(N[C@H]5CCC[C@@H](O)C5)n4)cs3)c2)C1=O [Example 255] | p-IKKa levels in L363 (NIK translocated multiple myeloma) cells | IC50 | > 501 nM |

---

Target: Recombinant Human NF-kappaB-Inducing Kinase (NIK/MAP3K14) (Homo sapiens)
Sequence (Q99558 whole entry): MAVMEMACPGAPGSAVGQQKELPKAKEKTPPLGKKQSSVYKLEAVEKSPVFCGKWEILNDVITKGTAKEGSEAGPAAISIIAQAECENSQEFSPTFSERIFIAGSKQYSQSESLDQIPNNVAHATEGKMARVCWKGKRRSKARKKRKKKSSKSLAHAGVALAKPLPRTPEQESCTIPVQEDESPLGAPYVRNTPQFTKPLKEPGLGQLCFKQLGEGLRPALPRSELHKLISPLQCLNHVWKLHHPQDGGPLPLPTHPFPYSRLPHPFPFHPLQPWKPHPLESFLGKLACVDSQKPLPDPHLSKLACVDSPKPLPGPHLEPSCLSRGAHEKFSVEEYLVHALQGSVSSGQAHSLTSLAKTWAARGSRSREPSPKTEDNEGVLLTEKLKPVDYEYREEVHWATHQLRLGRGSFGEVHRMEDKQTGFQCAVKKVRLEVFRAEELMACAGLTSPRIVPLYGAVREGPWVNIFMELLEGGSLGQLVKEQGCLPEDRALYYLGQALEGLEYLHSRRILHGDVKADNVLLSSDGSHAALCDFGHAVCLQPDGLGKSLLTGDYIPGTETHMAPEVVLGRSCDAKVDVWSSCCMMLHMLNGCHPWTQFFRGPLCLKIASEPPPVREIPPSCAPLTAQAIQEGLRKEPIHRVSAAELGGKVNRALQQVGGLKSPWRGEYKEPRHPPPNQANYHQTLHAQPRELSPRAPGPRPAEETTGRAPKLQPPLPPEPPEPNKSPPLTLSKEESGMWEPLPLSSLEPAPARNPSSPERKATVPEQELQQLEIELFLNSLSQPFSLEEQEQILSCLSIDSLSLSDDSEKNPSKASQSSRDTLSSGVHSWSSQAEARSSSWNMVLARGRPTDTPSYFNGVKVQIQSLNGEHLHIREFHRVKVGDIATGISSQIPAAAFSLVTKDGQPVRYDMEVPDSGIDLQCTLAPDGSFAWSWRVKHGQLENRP
Test: Inhibition of auto-phosphorylation of recombinant human NIK/MAP3K14 activity (AlphaScreen)
Conditions: 5 μM ATP, 1 nM NIK, average if tested more than once
Description: Assay 1: Inhibition of Auto-Phosphorylation of Recombinant Human NF-kappaB-Inducing Kinase (NIK/MAP3K14) Activity (AlphaScreen™) NIK/MAP3K14 auto-phosphorylation activity was measured using the AlphaScreen™ (αscreen) format (Perkin Elmer). […] Protein A Acceptor and Glutathione-Donor beads were added before reading using an EnVision Multilabel Plate Reader (Perkin Elmer). […] IC50's were determined by fitting a sigmoidal curve to % inhibition of control versus Log10 compound concentration.
pIC50: −log10 of the molar value.
endpoint: pIC50

| compound | endpoint | value observed |
| --- | --- | --- |
| C[C@@H](Nc1nccc(-c2nc(-c3cc([C@]4(O)CCN(C)C4=O)ccn3)cs2)n1)c1ccnn1C | pIC50 | > 7.00 |
| CN1CC[C@@](O)(c2cccc(-c3cccc(-c4ccnc(NCCCO)n4)n3)c2)C1=O | pIC50 | < 6.30 |
| CN1CC[C@@](O)(c2cccc(-c3nc(-c4ccnc(NC5CCN(S(C)(=O)=O)CC5)n4)cs3)c2)C1=O | pIC50 | > 7.00 |
| CC(C)Cn1cnc(Nc2nccc(-c3csc(-c4cccc([C@]5(O)CCN(C)C5=O)c4)n3)n2)c1 | pIC50 | > 7.00 |
| CN1CC[C@@](O)(c2cccc(-c3nc(-c4ccnc(Nc5cc(Cl)n(C)n5)n4)cs3)c2)C1=O | pIC50 | > 7.00 |
| CNC(=O)c1ccc(C)c(Nc2nccc(-c3csc(-c4cccc([C@]5(O)CCN(C)C5=O)c4)n3)n2)c1 | pIC50 | > 7.00 |
| C[C@H](Nc1nccc(-c2nc(-c3cccc([C@]4(O)CCN(C)C4=O)c3)cs2)n1)c1ccnn1C (single isomer, unassigned) | pIC50 | > 7.00 |
| CN1C[C@@H](Nc2nccc(-c3csc(-c4cccc([C@]5(O)CCN(C)C5=O)c4)n3)n2)CC1=O (single isomer, unassigned) | pIC50 | > 7.00 |
| CN1CC[C@@](O)(c2cccc(-c3csc(-c4ccnc(Nc5cnn(CC6CC6)c5)n4)n3)c2)C1=O | pIC50 | 6.30 to 7.00 |
| CN1CC[C@@](O)(c2cccc(-c3nc(-c4ccnc(NCC5CCO5)n4)cs3)c2)C1=O (stereo partly shown) | pIC50 | 6.30 to 7.00 |
| CN1CCC(O)(c2ccnc(-c3nc(-c4ccnc(Nc5ccn(C)n5)n4)cs3)c2)C1=O (single isomer, unassigned) [Example 33] | pIC50 | < 6.30 |
| CN1CC[C@@](O)(c2cccc(-c3nc(-c4ccnc(Nc5ccnn5C)n4)cs3)c2)C1=O | pIC50 | > 7.00 |
| Cc1cnc(CNc2nccc(-c3csc(-c4cccc([C@]5(O)CCN(C)C5=O)c4)n3)n2)o1 | pIC50 | > 7.00 |
| Cc1ncc(C#N)cc1Nc1nccc(-c2csc(-c3cccc([C@]4(O)CCN(C)C4=O)c3)n2)n1 | pIC50 | > 7.00 |
| CN1CC[C@@](O)(c2cccc(-c3nc(-c4ccnc(Nc5cnn(C6CCOC6)c5)n4)cs3)c2)C1=O (single isomer, unassigned) [Example 19] | pIC50 | > 7.00 |
| CN1CC[C@@](O)(c2cccc(-c3nc(-c4ccnc(Nc5ccn(CC6CC6)n5)n4)cs3)c2)C1=O | pIC50 | > 7.00 |

Origin of values: patent US20250304567A1
